Provenance of the data: patent US20240057587A1

STUDY SYSTEM: cytochrome C (Equus caballus, UniProt P00004)
Construct: a reagent produced by NACALAI TESQUE, INC; (Horse Heart, molecular weight 12384) was used; purchased NACALAI TESQUE, INC; host or cells: horse heart (tissue origin)
Sequence (P00004 whole entry): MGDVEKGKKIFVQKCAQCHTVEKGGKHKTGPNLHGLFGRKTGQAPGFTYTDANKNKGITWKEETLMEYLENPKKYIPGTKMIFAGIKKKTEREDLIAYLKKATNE
PROTOCOL DETAILS: Protein long-term stability (IR and UV spectrum), solid sample
Set-up: species or system Horse
OBSERVABLE: Protein long-term stability (after 30 days) Stabilizer: Protein = 1:1

{"columns": ["COMPOUND", "ENDPOINT VALUE"],
 "data": [
  ["Br.NC(CO)(CO)CO", "◯"],
  ["CC(=O)[O-].C[N+](C)(C)CCO [Comparative example 2, Choline Acetate, reference compound]", "×"],
  ["NC(CO)(CO)CO.O=C(O)c1ccccc1", "◯"],
  ["CC(O)C(=O)O.CCCCN(CCCC)CCCC [Comparative example 1, Tributyl Ammonium Lactate, reference compound]", "×"]
]}

---

EXPERIMENTAL PARAMETERS: Vali Fast Black 3830 dispersion liquid dried at 50° C. under reduced pressure for three hours, 0.7 g water added, remixed; visual
OBSERVABLE: Redispersibility Dye

{"columns": ["MOLECULE", "ENDPOINT VALUE"],
 "data": [
  ["NC(CO)(CO)CO [Working example 48]", "○ ○ ○ ○"],
  ["NC(CO)(CO)CO [Working example 36]", "○ ○ ○ ○"],
  ["NC(CO)(CO)CO [Working example 28]", "○ ○ ○ ○"],
  ["NC(CO)(CO)CO [Working example 109]", "○ ○ ○ ○"]
]}

---

STUDY SYSTEM: cytochrome C (Equus caballus)
Construct: a reagent produced by NACALAI TESQUE, INC; (Horse Heart, molecular weight 12384) was used; purchased NACALAI TESQUE, INC; host or cells: horse heart (tissue origin)
PROTOCOL DETAILS: Protein long-term stability (IR and UV spectrum), solid sample
Parameters: species or system Horse
EXPERIMENTAL PARAMETERS: cytochrome C, solid sample; 40° C., 80% RH; after 30 days; Stabilizer:Protein = 1:1
OBSERVABLE: Protein long-term stability (after 30 days) Stabilizer: Protein = 1:1

{"columns": ["COMPOUND", "ENDPOINT VALUE"],
 "data": [
  ["OCCNCCO", "◯"],
  ["NC(CO)(CO)CO [Working example 83]", "◯"],
  ["NC(CO)(CO)CO [Working example 48]", "◯"],
  ["NC(CO)(CO)CO [Working example 36]", "◯"],
  ["O=C[C@H](O)[C@@H](O)[C@H](O)[C@H](O)CO [Comparative example 4, Glucose, reference compound]", "×"],
  ["NCC(O)C(O)C(O)C(O)CO (centres unmarked)", "◯"],
  ["NC(CO)(CO)CO [Working example 28]", "◯"],
  ["NC(CO)(CO)CO [Working example 3]", "◯"],
  ["CCCCn1cc[n+](C)c1.[Br-] [Comparative example 3, BMI-Br, reference compound]", "×"],
  ["CCC(N)(CO)CO", "◯ ◯"],
  ["NC(CO)CO", "◯"]
]}

---

Measured Enzyme activity retention rate(%) (after 30 days) Stabilizer: Enzyme = 1:1 of individual entries
STUDY SYSTEM: urease (Canavalia ensiformis)
Sequence (P07374 whole entry, looked up): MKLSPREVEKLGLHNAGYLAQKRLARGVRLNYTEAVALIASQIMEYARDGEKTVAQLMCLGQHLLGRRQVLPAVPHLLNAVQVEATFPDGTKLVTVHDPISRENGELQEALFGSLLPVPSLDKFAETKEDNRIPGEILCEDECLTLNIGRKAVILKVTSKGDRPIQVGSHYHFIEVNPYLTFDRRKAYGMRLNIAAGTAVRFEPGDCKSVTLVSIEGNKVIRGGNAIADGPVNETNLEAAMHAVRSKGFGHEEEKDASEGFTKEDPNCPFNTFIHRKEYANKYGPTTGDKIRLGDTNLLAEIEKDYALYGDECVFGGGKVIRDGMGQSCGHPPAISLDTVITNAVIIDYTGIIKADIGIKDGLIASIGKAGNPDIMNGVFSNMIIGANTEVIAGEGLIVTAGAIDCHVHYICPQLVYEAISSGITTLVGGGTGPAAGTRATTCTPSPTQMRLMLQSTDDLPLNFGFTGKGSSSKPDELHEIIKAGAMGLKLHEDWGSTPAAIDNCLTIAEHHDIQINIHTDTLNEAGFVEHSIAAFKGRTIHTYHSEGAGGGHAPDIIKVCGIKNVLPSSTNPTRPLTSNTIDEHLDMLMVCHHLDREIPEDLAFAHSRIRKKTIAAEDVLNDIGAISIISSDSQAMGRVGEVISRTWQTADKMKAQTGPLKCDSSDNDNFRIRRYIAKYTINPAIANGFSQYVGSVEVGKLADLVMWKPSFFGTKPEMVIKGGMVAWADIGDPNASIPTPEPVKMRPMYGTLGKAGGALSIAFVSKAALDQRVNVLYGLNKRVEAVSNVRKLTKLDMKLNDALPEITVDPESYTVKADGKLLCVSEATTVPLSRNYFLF
Assay type: biochemical, sword bean
OBSERVABLE: Enzyme activity retention rate(%) (after 30 days) Stabilizer: Enzyme = 1:1

{"columns": ["MOLECULE", "DISPLAY UNIT", "ENDPOINT VALUE"],
 "data": [
  ["O=C[C@H](O)[C@@H](O)[C@H](O)[C@H](O)CO [Comparative example 4, Glucose, reference compound]", "%", 0],
  ["CC(O)C(=O)O.CCCCN(CCCC)CCCC [Comparative example 1, Tributyl Ammonium Lactate, reference compound]", "%", 0],
  ["CCCCn1cc[n+](C)c1.[Br-] [Comparative example 3, BMI-Br, reference compound]", "%", 0],
  ["Br.NC(CO)(CO)CO [Working example 78]", "%", 4]
]}
